Assay type: physicochemical
measurement.setup: ambient condition; sodium salt
Counter-ions that a name gives are not always drawn.
measurement.name: Time after which the form converts to Pattern C

# Time after which the form converts to Pattern C (compound: Cc1c(-c2ccc(-c3ccccc3F)cc2)nc2ccc(F)cc2c1C(=O)O [Pattern I, brequinar sodium salt] ) is 2 days
